assay: soluble on expression in E. coli; label from the status in PepcDB or PDB records

>  <macromolecule_sequence>
AHHHHHHGSGDNRKVRVVVGGVFDILHVGHVHFLKMAKELGDELIVIVAHDETVKRRKGRPPINPAEDRAELLKSIRYVDDVVIGEPGEISIDLIKRLKPDVIALGPDQDFSCEELKKRLRKEGINAEVIRLPYLYKSDRAKTSKIIQRIIETFCE

>  <soluble on expression in E. coli>
not soluble

$$$$
>  <macromolecule_sequence>
MSYLRALFFVLAMLATFGSMAGEPAHSDSGRDQVIRQILSDFWGNAKDVHGNAIQPASQEDRATVPISRAAAYRALEAGNLSGLAEWCGLDWEQHYLGLTEEARKMGMLDKQVAFFSVLHGAGQGAMVGSRSGQTCTAKQRTRIETLLLESQKEGLPSDALNGWQ

>  <soluble on expression in E. coli>
not soluble

$$$$

###

assay: soluble on expression in E. coli; label from the status in PepcDB or PDB records
property: soluble on expression in E. coli

>  <macromolecule_sequence>
MGDVIKVLDAQVRESLSGLPELHINFRARIILNPEDPRVDSIPPLEEVRIATYTRKKIGDIEPGDRFIEIRGTIAKVYRVLTYDACPECKKKVDYDPGTGVWICPEHGEVEPIKMTILDFGLDDGTGYIRVTLFGDDAEELLGVSSEEIAEKIKELENSGLTTKEAARKLAEEEFYKIIGKEIVVRGNVIEDRFLGLILRASSWEEVDYRKEIENIKEELEKLGVMLEHHHHHH

>  <property>
soluble on expression in E. coli

>  <reading>
soluble

$$$$
>  <macromolecule_sequence>
MGSDKIHHHHHHMEDKQKVIFIEDDPNLGLIIVLALQSKGYEVCYANTLSGIQDMIEKDCPNILLLDLEVGNQNALDYLPFIRSKHPSLPVLIASSHNEGEEITRCYEAGANHYTKKPYDIQEIDFLIQRFCKKGSPISNSISIGDYQLELSTHKLFYKQEQSKTLSPKDFKLFYLLSEQLNQPVSREKLFHEIWDGQEVHDSLNNSISRLRKLLEKDTTLSIDAVKGVGYILSKKDQLSSS

>  <property>
soluble on expression in E. coli

>  <reading>
not soluble

$$$$
>  <macromolecule_sequence>
MEFGRNPLSMTSTKPTLLNVLDDVGEAALHAIPKVDDITSHKIYVIAVQPVSFSDIESQAVKQDASSPNNCCCSCMHGVLRFFAELCCNCCAGCVQGICQG

>  <property>
soluble on expression in E. coli

>  <reading>
not soluble

$$$$
>  <macromolecule_sequence>
RQPEVRGGDTLNVFLAYVPEDAKAMMTTPFEAYLVNDSNYYLYYTYLSAEGKAWNNRSHGLVEPNTKLLLEEFTKDVLNEMERVAVQLIAFKDGKPAAIKPAVSVELRIDTVKFYKLHTFSASDFFEEPALIYDIVKDDVPAKQVYV

>  <property>
soluble on expression in E. coli

>  <reading>
soluble

$$$$
>  <macromolecule_sequence>
MMNQSRIKPVRMLILLRKLSPISRRIRIRNRLKQKTRSATIKSRCNPCLISVLANCYWCSSSASPPSGAATTACGGKNGSGLDSRVAFTGDNGAERTDPGVKTPGVSGQSEKG

>  <property>
soluble on expression in E. coli

>  <reading>
not soluble

$$$$
>  <macromolecule_sequence>
MAHHHHHHMDEGDHSDKESVGEEIVGEDHVEDKDGKPKRSYEKMVEEIKIENSKSFISKISEPLLKKKYFKYFLKILDYAYYAKVTAMQIIKTNEQIEERKKKILKNKFVVIGITQVVKAIRKGVDGIVFLAIDVFPIDIICHMPVFCEEHKIPYTFVTTKNKLARLCKLKRSVTCLFLPKPNIDIDKFEATVNEFSSKKKISNYAKLYEKMLSGVKKNHPFFQS

>  <property>
soluble on expression in E. coli

>  <reading>
soluble

$$$$
>  <macromolecule_sequence>
MLRIDCGGQDTVTKIVAERLMMKTDGRLARMLHVLVHMGLLGGRETSERIAQMLNTNPVVVRRTLGALRESGIVVSEGGRGGGWKLIRSLDQITVLDVQRALVEGQMLPAPLSKDHPNCPVERASNAVLERAHCLAEAALRTAYSETTLAQIAETAVATK

>  <property>
soluble on expression in E. coli

>  <reading>
not soluble

$$$$
>  <macromolecule_sequence>
MSPTLTHLALHVPDLDACIAFYETFCGMRVIHRRPGKGSQIVWMAEPGQEQRFIFVIMPGGQPRNLASDDYSHFGFALSSRAAVDDLARRAEAAGCLVWAPRDEPYPVGYYCGLRDPAGNYVEFSYGQPLGPGSEALPIP

>  <property>
soluble on expression in E. coli

>  <reading>
not soluble

$$$$
